B1: TPR t1 (parent)
chain: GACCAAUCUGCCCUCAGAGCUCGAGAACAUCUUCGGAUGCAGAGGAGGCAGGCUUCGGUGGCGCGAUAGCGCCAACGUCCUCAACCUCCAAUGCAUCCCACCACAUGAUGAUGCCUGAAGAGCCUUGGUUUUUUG

# Variants of: B1
# test: polymerase ribozyme fitness, log enrichment relative to wild type (log ratio); higher = more active; in vitro selection for triplet polymerase activity
Labels assigned by polymerase ribozyme fitness (log ratio) range: I (below -3), II (-3 to below -2), III (-2 or more)

Study these solved cases before continuing.
G45U G69A U78A G127C
I
G48U U55G G69A
II
U38A C101U G117C
I
G117A U130A
II
C28U G39A
II

Ask | Tag the class for C8U C13A A37C G61U U87G C102U
Reply | III

Ask | Tag the class for C64U A74C
Reply | III

Ask | Tag the class for C12G C89U
Reply | III

Ask | Tag the class for G69A U132C
Reply | II

Ask | Tag the class for A5C C12U G48A
Reply | III

Ask | Tag the class for A41G G45U C56G C124A
Reply | III

Ask | Tag the class for G44A G71C U125A U129C
Reply | I

Ask | Tag the class for G48C G61C
Reply | II

Ask | Tag the class for C28U U112C U116A
Reply | III

Ask | Tag the class for C8G G107U C123G
Reply | II

Ask | Tag the class for U9A C56A C82A C85A
Reply | III

Ask | Tag the class for G52C G71U U132A
Reply | III

Ask | Tag the class for A29C G57A C62U
Reply | I
